target.entity: Tyrosine-protein kinase Lck (Homo sapiens); further: in the data inactive means no Kd found up to 30 µM
Sequence (P06239 whole entry): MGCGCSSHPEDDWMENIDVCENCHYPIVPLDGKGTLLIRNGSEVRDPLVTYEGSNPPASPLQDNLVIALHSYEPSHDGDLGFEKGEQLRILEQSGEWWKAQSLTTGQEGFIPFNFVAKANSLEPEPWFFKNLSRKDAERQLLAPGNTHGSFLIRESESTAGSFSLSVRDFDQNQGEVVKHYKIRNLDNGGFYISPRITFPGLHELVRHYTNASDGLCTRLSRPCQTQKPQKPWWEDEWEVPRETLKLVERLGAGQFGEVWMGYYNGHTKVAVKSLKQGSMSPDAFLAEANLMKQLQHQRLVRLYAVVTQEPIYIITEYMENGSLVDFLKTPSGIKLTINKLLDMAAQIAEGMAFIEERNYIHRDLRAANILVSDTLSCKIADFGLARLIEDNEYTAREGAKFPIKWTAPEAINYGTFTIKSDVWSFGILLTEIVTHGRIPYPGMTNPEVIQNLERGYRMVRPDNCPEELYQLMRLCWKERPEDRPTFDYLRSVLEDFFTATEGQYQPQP
Counter-ions that a name gives are not always drawn. Calls of active or inactive are those of the source.
Outcome codes: active, inactive

{"molecule": "COc1c(OCCCN2CCOCC2)ccc2c1N=C(NC(=O)c1cnc(N)nc1)N1CCN=C21 [COPANLISIB]", "group": "inactive"}
{"molecule": "Cc1csc(-c2nnc(Nc3ccc(Oc4ncccc4-c4ccnc(N)n4)cc3)c3ccccc23)c1 [AMG-900]", "group": "inactive"}
{"molecule": "O=C(Nc1nc2cccc(-c3ccc(CN4CCS(=O)(=O)CC4)cc3)n2n1)C1CC1 [FILGOTINIB]", "group": "inactive"}
{"molecule": "NC(=O)Nc1cc(-c2cccc(F)c2)sc1C(=O)N[C@H]1CCCNC1 [AZD-7762]", "group": "active"}
{"molecule": "COc1cc(Nc2ncc3c(n2)-c2ccc(Cl)cc2C(c2c(F)cccc2OC)=NC3)ccc1C(=O)O [ALISERTIB]", "group": "inactive"}
{"molecule": "Cn1cc(-c2cnc3ccc4ccc(CS(=O)(=O)NCc5ccccn5)cc4c(=O)c3c2)cn1 [MK-8033]", "group": "inactive"}
{"molecule": "CC(C)c1cc(CNc2nc(Nc3cc(C4CC4)[nH]n3)cc(N3CCN(C)CC3)n2)on1 [XL-228]", "group": "active"}
{"molecule": "CCCCCCCCCCCCCCCCCCOP(=O)([O-])OC1CC[N+](C)(C)CC1 [PERIFOSINE]", "group": "inactive"}
{"molecule": "C[C@@H](N)c1ccc(C(=O)Nc2ccnc3[nH]ccc23)cc1 [Y-39983]", "group": "inactive"}
{"molecule": "Cc1nc(NC(=O)N2CCC[C@H]2C(N)=O)sc1-c1ccnc(C(C)(C)C(F)(F)F)c1 [ALPELISIB]", "group": "inactive"}
{"molecule": "CC(=O)c1cnc2ccc(-c3cc(Cl)c(O)c(Cl)c3)nc2c1N[C@H]1CC[C@H](CN(C)C)CC1", "group": "active"}
{"molecule": "COCC(=O)NC/C=C/c1ccc2ncnc(Nc3ccc(Oc4ccc(C)nc4)c(C)c3)c2c1 [CP-724714]", "group": "inactive"}
{"molecule": "CCS(=O)(=O)N1CCN(c2ccc(Nc3ncc(C(N)=O)c(NC4CC4)n3)cc2)CC1 [Cerdulatinib Hydrochloride]", "group": "inactive"}
{"molecule": "Nc1ncnc2c1c(-c1cccc(OCc3ccccc3)c1)cn2[C@H]1C[C@@H](CN2CCC2)C1 [AEW-541]", "group": "inactive"}
{"molecule": "Cc1cc(C(=O)NOCCO)c(Nc2ccc(I)cc2F)n(C)c1=O [AZD-8330]", "group": "inactive"}
{"molecule": "COc1cc2c(Nc3ccc(Cl)c(Cl)c3F)ncnc2cc1OC[C@@H]1C[C@@H]2CN(C)C[C@@H]2C1 [TESEVATINIB]", "group": "active"}
{"molecule": "CCn1c(C(=O)N(C2CC2)C2CC2)cc2c3c(ncn3C)c(Nc3cc(C)n(C)n3)nc21 [BMS-911543]", "group": "inactive"}
{"molecule": "COc1cc([C@@H]2c3cc4c(cc3[C@H](O)[C@H]3COC(=O)[C@@H]23)OCO4)cc(OC)c1OC [AXL-1717]", "group": "inactive"}

---

target.entity: Ephrin type-A receptor 2 (Homo sapiens, UniProt P29317); further: in the data inactive means no Kd found up to 30 µM
Sequence (P29317 whole entry): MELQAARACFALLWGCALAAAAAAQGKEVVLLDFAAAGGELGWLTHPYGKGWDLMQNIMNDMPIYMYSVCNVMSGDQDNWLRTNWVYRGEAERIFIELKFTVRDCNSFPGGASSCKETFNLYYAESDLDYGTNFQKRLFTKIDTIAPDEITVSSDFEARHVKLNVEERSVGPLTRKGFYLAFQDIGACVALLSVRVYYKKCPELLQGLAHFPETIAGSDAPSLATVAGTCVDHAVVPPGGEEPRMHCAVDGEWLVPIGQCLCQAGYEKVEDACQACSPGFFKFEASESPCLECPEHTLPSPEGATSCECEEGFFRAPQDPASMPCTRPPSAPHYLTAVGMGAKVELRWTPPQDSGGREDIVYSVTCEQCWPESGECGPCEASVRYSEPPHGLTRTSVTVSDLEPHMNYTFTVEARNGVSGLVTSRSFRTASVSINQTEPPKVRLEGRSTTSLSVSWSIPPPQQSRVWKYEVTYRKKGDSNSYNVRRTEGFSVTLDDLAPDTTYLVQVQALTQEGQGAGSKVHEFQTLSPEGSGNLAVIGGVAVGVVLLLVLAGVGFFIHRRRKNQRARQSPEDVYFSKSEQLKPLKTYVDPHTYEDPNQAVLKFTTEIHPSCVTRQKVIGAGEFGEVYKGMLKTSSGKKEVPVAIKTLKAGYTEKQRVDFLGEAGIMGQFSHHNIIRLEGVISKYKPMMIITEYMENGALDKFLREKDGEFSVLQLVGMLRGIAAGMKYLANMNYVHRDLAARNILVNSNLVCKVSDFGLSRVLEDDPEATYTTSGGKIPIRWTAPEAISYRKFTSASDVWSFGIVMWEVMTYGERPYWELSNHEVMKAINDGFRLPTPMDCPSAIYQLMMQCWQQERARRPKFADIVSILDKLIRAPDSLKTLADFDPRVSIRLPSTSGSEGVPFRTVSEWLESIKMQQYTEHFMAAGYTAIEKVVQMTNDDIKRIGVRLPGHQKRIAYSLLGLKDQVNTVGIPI
Structures can show the parent of a compound that is named as a salt. Activity calls are given as the source filed them.
Let's look at some compounds and their measured Kd.

{"compound": "Cc1nc(Nc2n[nH]c3c2CN(C(=O)N[C@H](CN(C)C)c2ccccc2)C3(C)C)c2sccc2n1", "Kd": "> 30 µM (inactive)"}
{"compound": "CCS(=O)(=O)N1CCN(c2ccc(Nc3ncc(C(N)=O)c(NC4CC4)n3)cc2)CC1 [Cerdulatinib Hydrochloride]", "Kd": "> 30 µM (inactive)"}
{"compound": "C#Cc1cccc(Nc2ncnc3cc(OC)c(OCCCCCCC(=O)NO)cc23)c1", "Kd": "> 30 µM (inactive)"}
{"compound": "Cc1nc(NC(=O)N2CCC[C@H]2C(N)=O)sc1-c1ccnc(C(C)(C)C(F)(F)F)c1", "Kd": "> 30 µM (inactive)"}
{"compound": "CCS(=O)(=O)c1cccc(-c2cc(C(=O)NC3CCN(C)CC3)c(C)c3[nH]c4ncc(C)cc4c23)c1", "Kd": "0.178 µM (active)"}
{"compound": "CN1C/C=C/CCOc2cccc(c2)-c2ccnc(n2)Nc2cccc(c2)C1", "Kd": "> 30 µM (inactive)"}
{"compound": "COc1ncc(-c2ccc3nccc(-c4ccnnc4)c3c2)cc1NS(=O)(=O)c1ccc(F)cc1F", "Kd": "> 30 µM (inactive)"}
{"compound": "O=C1NC(=O)[C@@H](c2cn3c4c(cccc24)CCC3)[C@@H]1c1c[nH]c2ccccc12 [TIVANTINIB]", "Kd": "> 30 µM (inactive)"}
{"compound": "COc1ccc(S(=O)(=O)N(C(C)=O)c2ccccc2/C=C/c2cc[n+]([O-])cc2)cc1", "Kd": "> 30 µM (inactive)"}
{"compound": "FC(F)(F)c1ccc(/C=C/c2nc(COc3ccc(CCCCn4ccnn4)cc3)co2)cc1", "Kd": "> 30 µM (inactive)"}
{"compound": "CN1CCN(CCOc2cc(OC3CCOCC3)c3c(Nc4c(Cl)ccc5c4OCO5)ncnc3c2)CC1", "Kd": "0.729 µM (active)"}
{"compound": "C=CC(=O)N1CCC[C@H](n2c(=O)n(-c3ccc(Oc4ccccc4)cc3)c3c(N)ncnc32)C1", "Kd": "> 30 µM (inactive)"}
{"compound": "C[C@@H](N)c1ccc(C(=O)Nc2ccnc3[nH]ccc23)cc1", "Kd": "> 30 µM (inactive)"}
{"compound": "COc1cc2c(Nc3ccc(Cl)c(Cl)c3F)ncnc2cc1OC[C@@H]1C[C@@H]2CN(C)C[C@@H]2C1", "Kd": "0.501 µM (active)"}
{"compound": "NC(=O)Nc1cc(-c2cccc(F)c2)sc1C(=O)N[C@H]1CCCNC1", "Kd": "> 30 µM (inactive)"}
{"compound": "Cn1cc(-c2cnn3c(N)c(Br)c([C@@H]4CCCNC4)nc23)cn1", "Kd": "> 30 µM (inactive)"}
{"compound": "Nc1ncnc2c1c(-c1cccc(OCc3ccccc3)c1)cn2[C@H]1C[C@@H](CN2CCC2)C1", "Kd": "> 30 µM (inactive)"}
{"compound": "C[C@H]1CNCCCN1S(=O)(=O)c1cccc2cncc(F)c12", "Kd": "> 30 µM (inactive)"}
{"compound": "Cn1cc(-c2cnc3ccc4ccc(CS(=O)(=O)NCc5ccccn5)cc4c(=O)c3c2)cn1", "Kd": "> 30 µM (inactive)"}
{"compound": "COc1cc([C@@H]2c3cc4c(cc3[C@H](O)[C@H]3COC(=O)[C@@H]23)OCO4)cc(OC)c1OC", "Kd": "> 30 µM (inactive)"}
{"compound": "O=c1[nH]ccc2cc(OC3CCNCC3)ccc12 [SAR-407899 FREE BASE]", "Kd": "> 30 µM (inactive)"}
{"compound": "CO[C@H]1C[C@@H]2CC[C@@H](C)[C@@](O)(O2)C(=O)C(=O)N2CCCC[C@H]2C(=O)O[C@H]([C@H](C)C[C@@H]2CC[C@@H](OC(=O)C(C)(CO)CO)[C@H](OC)C2)CC(=O)[C@H](C)/C=C(\\C)[C@@H](O)[C@@H](OC)C(=O)[C@H](C)C[C@H](C)/C=C/C=C/C=C/1C", "Kd": "> 30 µM (inactive)"}
